Record form. Attribute: ΔTm. Fill in for each entry.
Biological target: Bromodomain-containing protein 4 (Homo sapiens) (UniProt O60885)
Details: Compound concentration 20.0 uM
# unit: °C | format: bare number

I would be grateful if you could share the reported ΔTm for `O=C(c1ccc2[nH]ccc2c1)N1CCN(S(=O)(=O)c2ccc3[nH]c(=O)oc3c2)CC1` .
-2.8

GET /values?readout=ΔTm&item= `CN1CC[C@@H](Oc2ccc(F)c(-c3nc4c(o3)C(=O)c3ccccc3C4=O)c2Cl)C1`
0.99

# input compound: `CN(C(=O)CCCOc1ccc2[nH]c(=O)ccc2c1)C1CCCCC1` ; wanted: its ΔTm
-1.68

// ΔTm lookup, key: `N#Cc1cc(F)cc(Oc2ccc3c(c2C(F)F)[C@@H](O)C(F)(F)S3(=O)=O)c1`
-2.84

Reported ΔTm, compound `CC1(NC(=O)COc2cccc(-c3nc4c(c(Nc5ccc(-c6cn[nH]c6)cc5)n3)CN(C3CCC3)CC4)c2)CC1` : ____
-2.72

ΔTm lookup needed for `CC(C)N(C(=O)c1cc(F)ccc1Oc1cncnc1N1CC2(CCN(C[C@H]3CC[C@H](NS(C)(=O)=O)CC3)CC2)C1)C(C)C` , thanks.
-1.5

Find the recorded ΔTm belonging to `Cc1cc(/N=N/c2ccc(S(=O)(=O)NC3CCCC3)cc2)c(N)cc1O` and report it.
7.29

Dear colleague, I am looking for the recorded ΔTm of the following compound: `Cc1ccc(C(=O)Nc2ccc(S(=O)(=O)O)c3cc(S(=O)(=O)O)cc(S(=O)(=O)O)c23)cc1NC(=O)c1cccc(NC(=O)Nc2cccc(C(=O)Nc3cc(C(=O)Nc4ccc(S(=O)(=O)O)c5cc(S(=O)(=O)O)cc(S(=O)(=O)O)c45)ccc3C)c2)c1`
-5.41

Which ΔTm reading was recorded for the compound `CC(=O)N1CCN([C@H]2CCC[C@@H](NC(=O)c3cc4c(F)ccc(C)c4[nH]3)C2)CC1` ?
-1.42

I am curious: what ΔTm value has been reported for `Cc1[nH]c2c(N3CCCCC3)c(-c3ccccc3)nn2c(=O)c1-c1ccc(O)cc1` ?
0.61

Given the compound `CC(C)c1cnc(CSc2cnc(NC(=O)C3CCNCC3)s2)o1` , what is its reported ΔTm?
-1.43

Return reported ΔTm; argument: `Cn1c(OC[C@H]2CC[C@H](C(F)(F)F)CC2)nn2c(C3CCOCC3)ncc2c1=O`
-3.44

I have this compound here, `Cc1ccc2[nH]c(-n3nc(C)c(Cc4ccccc4)c3O)nc2c1` , and I need its recorded ΔTm.
-3.32

Give its ΔTm value. Item: COc1cc(-c2cn(C)c(=O)c3cnccc23)cc(OC)c1CN(C)CC(=O)NCCOCCOCCNc1cccc2c1C(=O)N(C1CCC(=O)NC1=O)C2=O (configuration not stated)
-1.54

Fill in: ΔTm of `Cc1ccnc(NS(=O)(=O)c2ccc(NC(=O)Nc3ccc(S(=O)(=O)Nc4nccc(C)n4)cc3)cc2)n1` is ___
-0.01

Using the record for `CN(C)CCCN(CC[C@H](N)C(=O)O)C[C@H]1O[C@@H](n2cnc3c(N)ncnc32)[C@H](O)[C@@H]1O` , report its ΔTm.
-2.2

Name the recorded ΔTm for `C[C@H](NC(=O)CCc1nc2ccccc2c(=O)[nH]1)c1ccccc1` .
0.84
